Sourced from patent US20230117034A1

Recorded log10 DC50 values for a group of molecules are listed next.
tgt: CDK12 (nuclear staining in CAL-120 cells) (Homo sapiens, UniProt Q9NYV4)
Construct: endogenous in cells; host or cells: CAL-120 human breast cancer cells (DSMZ ACC 459)
Sequence (Q9NYV4 whole entry): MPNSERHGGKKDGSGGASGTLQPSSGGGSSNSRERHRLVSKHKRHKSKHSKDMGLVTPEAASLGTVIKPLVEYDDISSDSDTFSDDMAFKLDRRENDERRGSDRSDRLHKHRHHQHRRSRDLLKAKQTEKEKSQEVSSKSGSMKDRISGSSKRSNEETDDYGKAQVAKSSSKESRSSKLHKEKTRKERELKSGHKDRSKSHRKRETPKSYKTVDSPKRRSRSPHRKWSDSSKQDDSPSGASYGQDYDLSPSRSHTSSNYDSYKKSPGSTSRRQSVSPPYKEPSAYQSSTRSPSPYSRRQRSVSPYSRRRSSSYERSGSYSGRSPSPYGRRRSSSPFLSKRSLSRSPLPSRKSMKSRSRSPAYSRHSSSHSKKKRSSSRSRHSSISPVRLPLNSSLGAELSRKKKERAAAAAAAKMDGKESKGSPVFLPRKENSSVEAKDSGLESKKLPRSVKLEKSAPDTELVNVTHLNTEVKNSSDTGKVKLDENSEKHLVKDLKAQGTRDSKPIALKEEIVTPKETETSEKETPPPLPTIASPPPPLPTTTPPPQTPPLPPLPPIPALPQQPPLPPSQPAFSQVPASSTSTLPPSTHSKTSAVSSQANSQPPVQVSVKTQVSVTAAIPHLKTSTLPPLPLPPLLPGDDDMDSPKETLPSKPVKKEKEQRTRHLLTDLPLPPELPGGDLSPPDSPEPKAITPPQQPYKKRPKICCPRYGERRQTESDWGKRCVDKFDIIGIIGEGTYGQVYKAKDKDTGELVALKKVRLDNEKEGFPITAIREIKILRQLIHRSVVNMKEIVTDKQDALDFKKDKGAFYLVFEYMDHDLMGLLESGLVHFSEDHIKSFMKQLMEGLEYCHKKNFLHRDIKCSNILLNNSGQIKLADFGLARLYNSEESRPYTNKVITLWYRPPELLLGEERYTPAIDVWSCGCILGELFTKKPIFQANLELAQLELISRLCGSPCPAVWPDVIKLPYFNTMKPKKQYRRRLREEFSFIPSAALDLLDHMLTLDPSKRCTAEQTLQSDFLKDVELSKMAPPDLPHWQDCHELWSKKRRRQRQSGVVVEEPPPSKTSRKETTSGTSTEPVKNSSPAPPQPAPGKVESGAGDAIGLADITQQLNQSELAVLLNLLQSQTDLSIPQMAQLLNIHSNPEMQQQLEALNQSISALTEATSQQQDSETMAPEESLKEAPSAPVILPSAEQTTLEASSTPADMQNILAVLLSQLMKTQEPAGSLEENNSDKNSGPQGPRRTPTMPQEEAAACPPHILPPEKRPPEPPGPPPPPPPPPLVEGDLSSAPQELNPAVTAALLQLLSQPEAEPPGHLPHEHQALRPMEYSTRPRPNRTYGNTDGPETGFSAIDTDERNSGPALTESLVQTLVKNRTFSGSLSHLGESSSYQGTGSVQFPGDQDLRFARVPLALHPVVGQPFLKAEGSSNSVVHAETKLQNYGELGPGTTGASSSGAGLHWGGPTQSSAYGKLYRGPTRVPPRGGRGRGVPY
Sequence (O75909 whole entry partner): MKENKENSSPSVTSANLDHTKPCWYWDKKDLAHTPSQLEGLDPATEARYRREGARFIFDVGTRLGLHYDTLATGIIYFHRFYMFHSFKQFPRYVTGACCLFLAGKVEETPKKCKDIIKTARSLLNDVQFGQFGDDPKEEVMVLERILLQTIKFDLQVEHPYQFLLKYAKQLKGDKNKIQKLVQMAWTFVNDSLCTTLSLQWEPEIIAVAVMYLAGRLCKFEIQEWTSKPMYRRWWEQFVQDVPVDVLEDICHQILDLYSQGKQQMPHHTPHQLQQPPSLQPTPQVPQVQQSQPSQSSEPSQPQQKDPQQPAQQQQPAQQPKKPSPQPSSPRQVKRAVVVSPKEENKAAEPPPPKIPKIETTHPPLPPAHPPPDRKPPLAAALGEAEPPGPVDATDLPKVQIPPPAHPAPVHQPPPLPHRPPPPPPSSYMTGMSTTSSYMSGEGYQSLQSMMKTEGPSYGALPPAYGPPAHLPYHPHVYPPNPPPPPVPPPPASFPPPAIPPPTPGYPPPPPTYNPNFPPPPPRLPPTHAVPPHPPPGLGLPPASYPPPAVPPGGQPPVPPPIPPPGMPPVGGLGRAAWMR
assay-info: CDK12 nuclear protein level: immunofluorescence/high content analysis (CAL-120)
Format: cell-based
study-conditions: CAL-120 cells, 24 h, immunofluorescence; 50% reduction of nuclear CDK12 staining intensity; median; read-out: CDK12 degradation IF, DC50- [mol/l] (median)
Hello, just confirming the data are log10 of DC50 with units of nM.

>>> recorded_number("Fc1cccc2[nH]c(CNc3nc(N4CC5CCC(C4)N5)nc4c(Cl)cnn34)nc12 [Example 363]")
1.08
>>> recorded_number("Brc1cnn2c(NCc3ncc(-c4cccnc4)[nH]3)nc(N3CCOCC3)nc12 [Example 84]")
1.33
>>> recorded_number("FC(F)(F)Oc1ccccc1-c1cnc(CNc2nc(N3CCOCC3)nc3c(Br)cnn23)[nH]1 [Example 89]")
0.86
>>> recorded_number("Clc1ccc(-c2nnc(CNc3nc(N4CCOCC4)nc4c(Br)cnn34)[nH]2)cc1 [Example 45]")
1.84
>>> recorded_number("CN1C[C@H]2C[C@@H]1CN2c1nc(NCc2nc3ccccc3[nH]2)n2ncc(Br)c2n1 [Example 218]")
1.02
>>> recorded_number("Fc1cccc2[nH]c(CNc3nc(N4C[C@@H]5C[C@H]4CO5)nc4c(C5CC5)cnn34)nc12 [Example 183]")
0.22
>>> recorded_number("CN(CC(C)(C)O)c1nc(NCc2nc3cc(C(F)(F)F)ccc3[nH]2)n2ncc(Br)c2n1 [Example 345]")
0.60
>>> recorded_number("N[C@@H]1CCN(c2nc(NCc3nc4ccccc4[nH]3)n3ncc(Br)c3n2)C1 [Example 250]")
0.50
>>> recorded_number("Fc1cc2nc(CNc3nc(N4CCOCC4)nc4c(Br)cnn34)[nH]c2cc1F [Example 341]")
0.55
>>> recorded_number("Fc1c(Cl)ccc2[nH]c(CNc3nc(N4CCOCC4)nc4c(C5CC5)cnn34)nc12 [Example 370]")
0.34

What value of measured log10 DC50 is listed for Fc1cccc(-c2cnc(CNc3nc(N4CCOCC4)nc4c(Br)cnn34)[nH]2)c1 [Example 79] ?
0.09

Bench note: what log10 DC50 did Fc1cc(-c2nnc(CNc3nc(N4CCOCC4)nc4c(Br)cnn34)[nH]2)cc(F)c1F [Example 100] show?
1.01

For the molecule shown here, Brc1cnn2c(NCc3nc4ccccc4[nH]3)nc(N3C[C@H]4CC[C@@H]3CN4)nc12 (single isomer, unassigned) [Example 316] , give the reported log10 DC50.
0.75

What value of log10 DC50 has been recorded for this entry: CN(CC(C)(C)O)c1nc(NCc2nc3cc(F)c(F)cc3[nH]2)n2ncc(C3CC3)c2n1 [Example 319]
0.49

Dear colleague, I am looking for the recorded log10 DC50 of the following molecule: OC[C@@H]1CCCCN1c1nc(NCc2nc3ccccc3[nH]2)n2ncc(Br)c2n1 [Example 59]
0.72

Look at this molecule and give its reported log10 DC50. NC1(C(F)(F)F)CCN(c2nc(NCc3nc4ccccc4[nH]3)n3ncc(Br)c3n2)C1 (stereo not shown) [Example 266]
1.72
